Entry source: patent US20230071840A1

Molecular target: UniProtKB P43220
Sequence (P43220 24-463, species assumed): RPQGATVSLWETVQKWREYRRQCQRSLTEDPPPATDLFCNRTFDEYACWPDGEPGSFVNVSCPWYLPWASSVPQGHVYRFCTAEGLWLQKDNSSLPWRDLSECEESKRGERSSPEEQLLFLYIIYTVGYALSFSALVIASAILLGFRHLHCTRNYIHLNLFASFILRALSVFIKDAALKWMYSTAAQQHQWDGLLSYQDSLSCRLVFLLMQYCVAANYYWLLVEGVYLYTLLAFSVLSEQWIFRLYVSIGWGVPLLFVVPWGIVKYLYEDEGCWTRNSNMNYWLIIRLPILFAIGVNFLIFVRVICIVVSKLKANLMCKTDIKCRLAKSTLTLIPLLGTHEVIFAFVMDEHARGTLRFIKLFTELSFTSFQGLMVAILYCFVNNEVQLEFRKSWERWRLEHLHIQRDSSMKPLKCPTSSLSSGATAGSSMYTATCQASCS
Experiment: GLP-1R agonist cAMP stimulation assay (HEK293/GLP1R/CRE-LUC cells, cAMP dynamic 2 kit)
Assay type: cell-based
Settings: HEK293/CRE-Luc cell line stably expressing the GLP-1 Receptor; 30 min incubation at 37° C.; read-out: GLP1R cAMP Stimulation DR: EC50
Experimental: Activation of GLP-1 receptor is known to stimulate cyclic AMP (cAMP) production in cells which indicates primary coupling to the Gas subunit of the G protein heterotrimeric complex. To optimize functional activity directed toward Gas coupling, a HEK293/CRE-Luc cell line developed by HDB stably expressing the GLP-1 Receptor was used. […] Seal the plate and incubate at 37° C. with 5% CO2 for 30 min. After incubation the cAMP assay signal was generated using cAMP dynamic 2 Kit (Cisbio). […]
REPORTED ENDPOINT: log10 EC50 (log10 of the value in nM)
Heads up: the numbers are on a log10 scale; they represent EC50 in nM.

Name the recorded log10 EC50 for O=C(O)c1ccc2nc(CN3CCC(Oc4cccc(Cc5ccccc5Cl)n4)CC3)n(C[C@@H]3CCO3)c2n1 [Compound 126a] .
0.00

Ok, now O=C(O)c1ccc2nc(CN3CCC(Oc4cccc(Cc5cccc(Cl)c5)n4)CC3)n(C[C@@H]3CCO3)c2n1 [Compound 125a]
0.15

Moving on to the next molecule.
Consider the molecule COCCn1c(C[C@H]2CC[C@H](Oc3ccnc(Cc4ccc(Cl)cc4)n3)CC2)nc2ccc(C(=O)O)nc21 [Compound 179a] and give its measured log10 EC50.
0.45
